assay: Cell Viability - LYMP2-016 (AID 984); conditions: LYMP2-016 lymphoblastoid cell viability, qHTS; series mostly up to 92.2 µM;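 further: cells exposed to compound for 24 hours at 37 °C; nearly all actives have a fitted effect of over 55% in size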
Records with an inconclusive call do not appear. The source made the active and inactive calls. The call rests on the fitted dose curve; in most records, active means well fitted cell-killing curve with a large enough effect; inconclusive means small, poorly fitted or top-dose-only effect; inactive means flat fitted curve, though single readings scatter.
Endpoint: outcome

ON=C1CCCCC1 :: inactive
CC(C)(C)OC=O :: inactive
CCOCCOCC :: inactive
CCC(C)(C)OC :: inactive
O=C(O)c1ccccc1C(=O)O :: inactive
Nc1cccc(O)c1 :: inactive
CCC(=O)/C=C/C1C(C)=CCCC1(C)C (configuration not stated) :: inactive
Cc1nc2ccc(Cl)cc2[nH]1 :: inactive
O=[N+]([O-])c1ccc(NCCO)c(OCCO)c1 :: inactive
C1CCC2OC2C1 (configuration not stated) :: inactive
CC(=O)Nc1ccccc1C :: inactive
CC(CCl)OC(C)CCl (configuration not stated) :: inactive
CNC(=O)N(c1ccccc1)c1ccccc1 :: inactive
COC(=O)CCCC(=O)OC :: inactive
C1COC1 :: inactive
CCCCCCCN :: inactive
CC=C(Cl)Cl :: inactive
